Ref: PubChem BioAssay (NCI)

System: COLO 205 colon
PROTOCOL_TEXT: NCI-60 one-dose screen, 48 h (100 = growth as untreated, 0 = no growth, -100 = all killed)
TEST_CONDITIONS: 10 µM unless noted
The panel holds about 83,000 compounds, 20% with a hit somewhere; the sample as a whole holds those more often.
MEASURED_QUANTITY: growth (%)
Entry rule: numbers only, all in %.

Answered examples (5):
• C[n+]1cc2cc3c(cc2c2ccccc21)OCO3 = 75.6
• C=CC(=O)OC1CCC(C(C)(C)CC)CC1 (stereo not drawn) = 105
• CCOC(OCC)C(=O)c1ccccc1 = 104
• COc1ccc(-c2csc(NC(=O)Nc3nc(-c4ccc(OC)cc4)cs3)n2)cc1 = 98.5
• CC(C)C1CCC(C)C(O)C1 (stereo not drawn) = 111

Reported growth for "O=[N+]([O-])c1c(Cl)ncnc1Cl" was 113

Noted for O=C(OCC1CCCO1)c1ccc([N+](=O)[O-])cc1 (stereo not drawn) : its growth reads 103

So for CC(=O)C1C(=O)C(=O)N(c2ccc(Cl)c(Cl)c2)C1=O (stereo not drawn) , the logged growth turned out to be 103

Lab book: growth of "S=C(NCc1ccccc1)N1CCC(CCCC2CCN(C(=S)NCc3ccccc3)CC2)CC1" noted as 110

Looking up "CC(=O)/C(C)=N\OC(=O)Nc1ccccc1" , I found its growth recorded as 96.4

###

Tested on: NCI-H23 lung
PROTOCOL_TEXT: NCI-60 one-dose screen, 48 h (100 = growth as untreated, 0 = no growth, -100 = all killed)
TEST_CONDITIONS: 10 µM unless noted
The panel holds about 83,000 compounds, 20% with a hit somewhere; the sample as a whole holds those more often.
# growth annotations
Unit % implied. Number only.

Memo: "N#C/C(=C\c1ccc2c(c1)OCO2)c1ccccc1" , reported growth: 84

The recorded growth for entry "CCCCN(C(=O)CC)c1ccccc1" equals 99.9

Entry "Nc1nnc2cc(F)ccc2n1" ; growth = 90.6

###

Test system: HT29 colon
PROTOCOL_TEXT: NCI-60 one-dose screen, 48 h (100 = growth as untreated, 0 = no growth, -100 = all killed)
TEST_CONDITIONS: 10 µM unless noted
The panel holds about 83,000 compounds, 20% with a hit somewhere; the sample as a whole holds those more often.
Reported growth values are given for each entry in this list.
Please reply with the bare figure in % and do not write the unit itself.

Examples from the recorded data:
* O=c1n(CC2CO2)c(=O)n(CC2CO2)n1CC1CO1 (stereo not drawn) | 69.5
* C[n+]1cc2cc3c(cc2c2ccccc21)OCO3 | 63

For this compound ( CC(O)C(F)(F)C(F)(F)C(F)(F)F (stereo not drawn) ), measured growth is 99.9

###

// values below are reported growth
Tested on: SNB-75 CNS
PROTOCOL_TEXT: NCI-60 one-dose screen, 48 h (100 = growth as untreated, 0 = no growth, -100 = all killed)
TEST_CONDITIONS: 10 µM unless noted
About 83,000 compounds went through this panel and 20% of them were active in at least one assay; those are over-represented in the sample as a whole. Calls of active or inactive are those of the source. Rule for the calls: active = growth percent below 10; inactive = the rest.

Please review the entries below; each comes with its answer.
• Cc1cc(C)cc(OCC(=O)O)c1 = 94.8% (inactive)
• Cn1c2ccccc2c2nnc(NCCCCO)nc21 = 56.2% (inactive)
• O=C(O)CSCC(=O)Nc1cc(C(F)(F)F)ccc1Cl = 125% (inactive)
• CCN(C(=O)Nc1ccccc1Cl)c1ccccc1 = 117% (inactive)
• CCOC(OCC)C(=O)c1ccccc1 = 94.1% (inactive)

The reported value for "Nc1ccc2ccccc2c1-c1c(N)ccc2ccccc12" in terms of growth is 42.7% (inactive)

Entry "CCOC(=O)C1(N)CCCCC1" , growth reported as 91.8% (inactive)

// recorded growth for "COc1cc(N)c2ncccc2c1Cl" : 99.8% (inactive)

compound "Nc1nc(Cl)cc(Cl)n1" , growth observed: 91.4% (inactive)

Lab note: CCN(CC)CCCC(C)NC(=S)N/N=C(\C)c1ccccn1 (configuration not stated) gave growth of 61.9% (inactive)

Measured growth, "CC(=O)N(CCCCCCN(C(C)=O)C(C)=O)C(C)=O" : 87.9% [100 µM] (inactive)

Please fill in: growth reported for C=COC(=O)CCOCC(CC)CCCC (configuration not stated) = 97.2% (inactive)
